# System: PPARg:RXRa IVT, anti-PPARg (NR concentration 270 nM, RXRa partner concentration 90 nM)
# experiment-notes: PBM binding z-score (relative to random genomic background probes); higher = stronger binding; sequences stand for … in GC…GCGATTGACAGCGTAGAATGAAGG
Exercise: state measured PBM binding z-score for each of the sequences provided.

Query: Dear colleague, please send me the reported PBM binding z-score for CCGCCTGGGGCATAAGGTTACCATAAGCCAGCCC when you can.
Response: -0.147

Query: Provide one value: measured PBM binding z-score of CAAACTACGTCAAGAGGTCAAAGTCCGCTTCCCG
Response: 2.44

Query: Provide only the value of recorded PBM binding z-score for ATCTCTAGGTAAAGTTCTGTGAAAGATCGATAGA
Response: 1.61

Query: Quick one: give measured PBM binding z-score for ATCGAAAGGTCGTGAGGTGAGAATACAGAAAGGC
Response: 2.7

Query: Give PBM binding z-score for the following sequence: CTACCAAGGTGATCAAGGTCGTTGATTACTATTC
Response: 1.31

Query: Supply reported PBM binding z-score belonging to this sequence: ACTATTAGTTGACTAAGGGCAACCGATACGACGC
Response: 0.783

Query: For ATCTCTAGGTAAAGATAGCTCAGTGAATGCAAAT , write its PBM binding z-score.
Response: 1.53

Query: Kindly indicate its recorded PBM binding z-score. Item: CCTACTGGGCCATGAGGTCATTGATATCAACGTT
Response: 5.54

Query: Give PBM binding z-score for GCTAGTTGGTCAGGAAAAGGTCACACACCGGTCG
Response: 2.59

Query: Give the reported PBM binding z-score for this sequence. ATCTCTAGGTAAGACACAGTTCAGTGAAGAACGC
Response: 1.34

Query: Provide PBM binding z-score value for the following sequence: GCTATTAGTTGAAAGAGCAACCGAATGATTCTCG
Response: -0.404

Query: Please report PBM binding z-score for the following sequence: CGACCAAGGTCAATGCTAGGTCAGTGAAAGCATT
Response: 3.59

----------
# System: PPARg:RXRa 270nM:90nM, anti-RXR (NR concentration 270 nM, RXRa partner concentration 90 nM)
# experiment-notes: PBM binding z-score (relative to random genomic background probes); higher = stronger binding; sequences stand for … in GC…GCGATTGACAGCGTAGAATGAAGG
Please go through the items and note down their PBM binding z-score.
Number, no unit, nothing else.

Query: Identify the reported PBM binding z-score for the following entry. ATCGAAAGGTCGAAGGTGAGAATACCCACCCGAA
Response: 4.93

Query: Tell me its PBM binding z-score given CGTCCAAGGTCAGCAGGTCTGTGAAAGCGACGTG as the entry.
Response: 3.06

Query: Using known records, supply PBM binding z-score for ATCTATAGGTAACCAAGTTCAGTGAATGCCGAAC
Response: 0.848

Query: Using the record for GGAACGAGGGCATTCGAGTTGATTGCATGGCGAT , state its measured PBM binding z-score.
Response: 0.598

Query: Consider the sequence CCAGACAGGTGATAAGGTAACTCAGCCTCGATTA . State its measured PBM binding z-score.
Response: 0.114

Query: For the sequence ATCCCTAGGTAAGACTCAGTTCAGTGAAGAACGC , give its reported PBM binding z-score.
Response: -0.195

Query: Supply PBM binding z-score value. Item: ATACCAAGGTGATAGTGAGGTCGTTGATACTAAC
Response: 0.98

Query: Give PBM binding z-score for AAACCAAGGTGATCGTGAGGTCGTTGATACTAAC
Response: 0.544

Query: Tell me measured PBM binding z-score for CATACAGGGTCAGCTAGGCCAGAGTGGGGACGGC please.
Response: 3.01

Query: Please report the measured PBM binding z-score for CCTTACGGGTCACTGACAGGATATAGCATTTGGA
Response: 4.24

Query: Give recorded PBM binding z-score. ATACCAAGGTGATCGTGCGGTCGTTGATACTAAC
Response: 0.0521

Query: Please report the measured PBM binding z-score for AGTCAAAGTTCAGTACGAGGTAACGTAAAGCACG
Response: 4.15

----------
# Tested on: RARb homodimer (NR concentration 270 nM)
# experiment-notes: PBM binding z-score (relative to random genomic background probes); higher = stronger binding; sequences stand for … in GC…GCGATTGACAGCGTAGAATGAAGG
Answer each item with its documented PBM binding z-score.
Just the number, please, no unit after it.

Query: Provide PBM binding z-score, recorded with RARb homodimer (NR concentration 270 nM), of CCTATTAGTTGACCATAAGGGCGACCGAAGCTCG
Response: 1.12

Query: # assay system RARb homodimer (NR concentration 270 nM): give PBM binding z-score of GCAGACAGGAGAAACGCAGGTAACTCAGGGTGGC
Response: -0.808

Query: // fetch PBM binding z-score for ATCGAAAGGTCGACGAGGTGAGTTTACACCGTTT ; system: RARb homodimer (NR concentration 270 nM)
Response: 3.04

Query: Consider the sequence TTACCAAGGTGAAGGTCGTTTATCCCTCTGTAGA tested on RARb homodimer (NR concentration 270 nM); state its PBM binding z-score.
Response: 1.99

Query: Enter PBM binding z-score (test system RARb homodimer (NR concentration 270 nM)) for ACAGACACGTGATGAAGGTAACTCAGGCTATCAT
Response: -0.0735

Query: For RARb homodimer (NR concentration 270 nM), give PBM binding z-score of the listed sequence: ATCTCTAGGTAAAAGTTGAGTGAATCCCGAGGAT
Response: 0.0614

Query: Consider the sequence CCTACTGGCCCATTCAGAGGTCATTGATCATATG tested on RARb homodimer (NR concentration 270 nM); state its PBM binding z-score.
Response: 3.64

Query: GET PBM binding z-score where system = RARb homodimer (NR concentration 270 nM) and item = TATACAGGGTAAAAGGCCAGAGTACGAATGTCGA
Response: 1.6

Query: Please indicate recorded PBM binding z-score of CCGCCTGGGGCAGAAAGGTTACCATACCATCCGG measured with RARb homodimer (NR concentration 270 nM).
Response: 2.37

Query: Identify measured PBM binding z-score obtained with RARb homodimer (NR concentration 270 nM) for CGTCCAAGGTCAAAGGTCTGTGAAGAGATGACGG .
Response: 4.1

Query: Fill in: PBM binding z-score on RARb homodimer (NR concentration 270 nM), entry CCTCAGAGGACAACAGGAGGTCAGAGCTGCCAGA
Response: 3.94

Query: Specify the recorded PBM binding z-score for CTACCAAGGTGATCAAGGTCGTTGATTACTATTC , system: RARb homodimer (NR concentration 270 nM).
Response: 1.47

Query: Name the recorded PBM binding z-score of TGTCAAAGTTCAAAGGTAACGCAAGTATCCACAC , assay system RARb homodimer (NR concentration 270 nM).
Response: 3.97

Query: State recorded PBM binding z-score with RARb homodimer (NR concentration 270 nM), entry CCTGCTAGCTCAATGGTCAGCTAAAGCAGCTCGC , no comment.
Response: 0.464

Query: State measured PBM binding z-score of the sequence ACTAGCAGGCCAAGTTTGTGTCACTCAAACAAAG with RARb homodimer (NR concentration 270 nM).
Response: 0.267

Query: Give PBM binding z-score for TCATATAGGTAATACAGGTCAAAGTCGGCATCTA tested on RARb homodimer (NR concentration 270 nM).
Response: 3.29

Query: Tell me PBM binding z-score of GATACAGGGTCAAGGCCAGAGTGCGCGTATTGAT when tested on RARb homodimer (NR concentration 270 nM).
Response: 3.82

Query: Name the value of PBM binding z-score reported for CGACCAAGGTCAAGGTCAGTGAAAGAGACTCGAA when tested on RARb homodimer (NR concentration 270 nM).
Response: 4.91

Query: Report its PBM binding z-score with RARb homodimer (NR concentration 270 nM) as the test system: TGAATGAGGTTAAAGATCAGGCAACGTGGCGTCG
Response: 0.653

Query: Find PBM binding z-score for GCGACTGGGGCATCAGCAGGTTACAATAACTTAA on RARb homodimer (NR concentration 270 nM) and write it down.
Response: 0.719

Query: State PBM binding z-score (RARb homodimer (NR concentration 270 nM)) of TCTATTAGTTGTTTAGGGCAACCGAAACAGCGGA .
Response: 0.623

Query: Fetch value of PBM binding z-score on RARb homodimer (NR concentration 270 nM) for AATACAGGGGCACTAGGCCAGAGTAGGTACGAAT .
Response: 0.82

Query: Look up and report PBM binding z-score, with RARb homodimer (NR concentration 270 nM) as system, for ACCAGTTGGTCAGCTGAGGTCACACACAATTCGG
Response: 4.44

Query: System RARb homodimer (NR concentration 270 nM). Read-out PBM binding z-score. Item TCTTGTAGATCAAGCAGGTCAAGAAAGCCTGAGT . Report value.
Response: 2.28

Query: Report its PBM binding z-score with RARb homodimer (NR concentration 270 nM) as the test system: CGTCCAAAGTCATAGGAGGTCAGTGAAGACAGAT
Response: 3.55

Query: Recall the reported PBM binding z-score of GCATATAGCTAATACAAGGTGAAAGTCCGATTGT when tested on RARb homodimer (NR concentration 270 nM).
Response: 0.396
